Test system: cellular pERK in NCI-H441 (KRAS-G12V) cell-line
Method: Cell based pERK assay, NCI-H441
Assay Context: Homo sapiens; NCI-H441 (KRAS-G12V) cells, 2 hours compound incubation, HTRF Phospho-ERK1/2
pEC50: −log10 of the molar value.
Label condition met when pEC50 is at or above 8; otherwise label condition not met.

# bool: pEC50 of C#Cc1c(F)ccc2cc(O)cc(-c3ncc4c(N5CC6(F)CCC(F)(C5)N6)nc(OC[C@@H]5CC[C@]6(COc7cc(C(F)(F)F)ncn7)CCCN56)nc4c3F)c12 [Example 2-11] >= 8
condition not met

Next: C#Cc1c(F)ccc2cc(O)cc(-c3ncc4c(N5C[C@]6(F)CC[C@](F)(C5)N6)nc(OC[C@@]56CCCN5C[C@H](F)C6)nc4c3F)c12 [Example 1-1]
condition met

Next: N#Cc1c(N)sc2c(F)ccc(-c3c(Cl)cc4c(N5CC6(F)CCC(F)(C5)N6)nc(OC[C@@]56CCCN5C[C@H](F)C6)nc4c3F)c12 (single isomer, unassigned) [Example 8-2]
condition not met

====

System: cellular pERK in NCI-H441 (KRAS-G12V) cell-line
Method: Cell based pERK assay, NCI-H441
Assay Context: Homo sapiens; NCI-H441 (KRAS-G12V) cells, 2 hours compound incubation, HTRF Phospho-ERK1/2
Readout Type: EC50 (nM)
Your answer is read as nM, so omit the unit and give the number.

Reported EC50, compound C#Cc1c(F)ccc2cccc(-c3ncc4c(N5CC6(F)CCC(F)(C5)N6)nc(OC[C@@]56CCCN5C[C@H](F)C6)nc4c3F)c12 [Example 1-2] : ____
66

Next: Cc1cc(N)nc(-c2c(Cl)cc3c(N4CC5(F)CCC(F)(C4)N5)nc(OC[C@@]45CCCN4C[C@H](F)C5)nc3c2F)c1C(F)(F)F [Example 7-1]
672

Next: C#Cc1c(F)ccc2cc(O)cc(-c3c(Cl)cc4c(N5CC6(F)CCC(F)(C5)N6)nc(OC[C@@]56CCCN5C[C@H](F)C6)nc4c3F)c12 [Example 2-6]
6.11

Next: Cc1cc(N)nc(-c2c(F)cc3c(N4CC5(F)CCC(F)(C4)N5)nc(OC[C@@]45CCCN4C[C@H](F)C5)nc3c2F)c1C(F)(F)F [Example 6-1]
616

Next: N#Cc1c(N)sc2c(F)ccc(-c3c(Cl)cc4c(N5CC6(F)CCC(F)(C5)N6)nc(OC[C@@]56CCCN5C[C@H](F)C6)nc4c3F)c12 [Example 7-3]
4.82

Next: CCc1c(F)ccc2cccc(-c3ncc4c(N5CC6(F)CCC(F)(C5)N6)nc(OC[C@@]56CCCN5C[C@H](F)C6)nc4c3F)c12 [Example 4-2]
507

====

System: cellular pERK in NCI-H441 (KRAS-G12V) cell-line
Method: Cell based pERK assay, NCI-H441
Assay Context: Homo sapiens; NCI-H441 (KRAS-G12V) cells, 2 hours compound incubation, HTRF Phospho-ERK1/2
Readout Type: pEC50
Please keep in mind that pEC50 is minus log10 of the molar concentration; only the number is needed.

Reported pEC50, compound `C#Cc1c(F)ccc2cc(N)cc(-c3ncc4c(N5CC6(F)CCC(F)(C5)N6)nc(OC[C@@]56CCCN5C[C@H](F)C6)nc4c3F)c12` : ____
8.08

Next: `C#Cc1c(F)ccc2cc(O)cc(-c3ncc4c(N5C[C@]6(F)CC[C@](F)(C5)N6)nc(OCC56CCCN5CCC6)nc4c3F)c12`
7.75

Next: `Nc1nc2c(-c3c(Cl)cc4c(N5CC6(F)CCC(F)(C5)N6)nc(OC[C@@]56CCCN5C[C@H](F)C6)nc4c3F)ccc(F)c2s1`
6.93

Next: `C#Cc1c(F)ccc2cccc(-c3ncc4c(N5C[C@]6(F)CC[C@](F)(C5)N6)nc(OCC56CCCN5CCC6)nc4c3F)c12`
6.93

====

What follows is a record of pIC50 for GDP-loaded wild-type KRAS (WT) (Homo sapiens, UniProt P01116).
Please keep in mind that pIC50 is minus log10 of the molar concentration; only the number is needed.

Reported pIC50, molecule `C#Cc1c(F)ccc2cc(O)cc(-c3ncc4c(N5C[C@]6(F)CC[C@](F)(C5)N6)nc(OC[C@@]56CCCN5C[C@H](F)C6)nc4c3F)c12` : ____
10.10

Next: N#Cc1c(N)sc2c(F)ccc(-c3c(Cl)cc4c(N5CC6(F)CCC(F)(C5)N6)nc(OC[C@@]56CCCN5C[C@H](F)C6)nc4c3F)c12 (single isomer, unassigned) [Example 8-1]
9.89

Next: C#Cc1c(F)ccc2cc(O)cc(-c3c(F)cc4c(N5CC6(F)CCC(F)(C5)N6)nc(OC[C@@]56CCCN5C[C@H](F)C6)nc4c3F)c12 (single isomer, unassigned) [Example 9-2]
7.18

Next: `C#Cc1c(F)ccc2cc(N)cc(-c3c(F)cc4c(N5CC6(F)CCC(F)(C5)N6)nc(OCC56CCCN5CCC6)nc4c3F)c12`
8.44

Next: `Nc1nc2c(-c3c(Cl)cc4c(N5CC6(F)CCC(F)(C5)N6)nc(OC[C@@]56CCCN5C[C@H](F)C6)nc4c3F)ccc(F)c2s1`
7.84

====

I'd be grateful if you could share measured IC50 for these entries.
Measured On: GDP-loaded wild-type KRAS (WT) (Homo sapiens, UniProt P01116)
Sequence (P01116 1-188 isoform P01116-2): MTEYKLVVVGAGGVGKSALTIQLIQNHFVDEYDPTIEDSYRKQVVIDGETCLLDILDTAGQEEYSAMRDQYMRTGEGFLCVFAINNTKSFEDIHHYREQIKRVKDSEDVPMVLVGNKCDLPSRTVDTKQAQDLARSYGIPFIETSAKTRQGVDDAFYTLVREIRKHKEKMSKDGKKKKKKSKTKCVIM
Your answer is read as nM, so omit the unit and give the number.

Reported IC50, molecule C#Cc1c(F)c(F)cc2cc(O)cc(-c3c(F)cc4c(N5CC6(F)CCC(F)(C5)N6)nc(OCC56CCCN5CCC6)nc4c3F)c12 [Example 2-5] : ____
0.29

Next: C#Cc1c(F)ccc2cccc(-c3ncc4c(N5CC6(F)CCC(F)(C5)N6)nc(OC[C@@]56CCCN5C[C@H](F)C6)nc4c3F)c12 [Example 1-2]
26.6

Next: C#Cc1c(F)ccc2cc(N)cc(-c3ncc4c(N5CC6(F)CCC(F)(C5)N6)nc(OC[C@@]56CCCN5C[C@H](F)C6)nc4c3F)c12 [Example 5-1]
2.31

====

System: cellular pERK in MIA-PaCa-2 (KRAS-G12C) cell-line
Method: Cell based pERK assay, MIA-PaCa-2
Assay Context: Homo sapiens; MIA-PaCa-2 (KRAS-G12C) cells, 2 hours compound incubation, HTRF Phospho-ERK1/2; read-out: MIAPaCa2 pERK EC50
pEC50: −log10 of the molar value.
Label label 1 when pEC50 is at or above 8; otherwise label label 0.

# bool: pEC50 of `C#Cc1c(F)ccc2cc(O)cc(-c3c(Cl)cc4c(N5CC6(F)CCC(F)(C5)N6)nc(OC[C@@]56CCCN5C[C@H](F)C6)nc4c3F)c12` >= 8
label 1

Next: `Nc1cc2ccc(F)cc2c(-c2c(Cl)cc3c(N4CC5(F)CCC(F)(C4)N5)nc(OC[C@@]45CCCN4C[C@H](F)C5)nc3c2F)n1`
label 0

Next: `Nc1nc2c(-c3c(Cl)cc4c(N5CC6(F)CCC(F)(C5)N6)nc(OC[C@@]56CCCN5C[C@H](F)C6)nc4c3F)ccc(F)c2s1`
label 0

Next: `C#Cc1c(F)ccc2cccc(-c3ncc4c(N5CC6(F)CCC(F)(C5)N6)nc(OC[C@@]56CCCN5C[C@H](F)C6)nc4c3F)c12`
label 0

Next: `Cc1cc(-c2c(Cl)cc3c(N4CC5(F)CCC(F)(C4)N5)nc(OC[C@@]45CCCN4C[C@H](F)C5)nc3c2F)c2cccnc2c1N`
label 0

Next: `C#Cc1c(F)ccc2cc(O)cc(-c3ncc4c(N5CC6(F)CCC(F)(C5)N6)nc(OC[C@@]56CCCN5[C@H](COc5cc(C(F)(F)F)cnn5)CC6)nc4c3F)c12`
label 1

Next: `Cc1cc(-c2c(F)cc3c(N4CC5(F)CCC(F)(C4)N5)nc(OC[C@@]45CCCN4C[C@H](F)C5)nc3c2F)c2cccnc2c1N`
label 0

Next: `C#Cc1c(F)c(F)cc2cc(O)cc(-c3c(F)cc4c(N5CC6(F)CCC(F)(C5)N6)nc(OCC56CCCN5CCC6)nc4c3F)c12`
label 1

Next: `C#Cc1c(F)ccc2cccc(-c3ncc4c(N5C[C@]6(F)CC[C@](F)(C5)N6)nc(OCC56CCCN5CCC6)nc4c3F)c12`
label 0

Next: `Cc1cc(N)nc(-c2c(F)cc3c(N4CC5(F)CCC(F)(C4)N5)nc(OC[C@@]45CCCN4C[C@H](F)C5)nc3c2F)c1C(F)(F)F`
label 0

Next: N#Cc1c(N)sc2c(F)ccc(-c3c(Cl)cc4c(N5CC6(F)CCC(F)(C5)N6)nc(OC[C@@]56CCCN5C[C@H](F)C6)nc4c3F)c12 (single isomer, unassigned) [Example 8-2]
label 0

Next: `CCc1c(F)ccc2cc(O)cc(-c3ncc4c(N5CC6(F)CCC(F)(C5)N6)nc(OC[C@@]56CCCN5C[C@H](F)C6)nc4c3F)c12`
label 1

Source listed as patent US20250059208A1.
